system.name: T1, human serum albumin (human, UniProt P02768 25-609)
T1 construct: also called HSA; HAS
experiment.description: phage display panning on HSA and screening

binder	binding result
SEQ ID NO 48 (VNAR, clone name not tied to this number) VNAR: ASVNQTPRTATKETGESLTINCVLTDTSYPLYSTYWYRKNPGSSNKEQISISGRYVESVNKGTKSFSLRIKDLTVADSATYICRAMDTSAGVVDGAGTVLTVN	binds
SEQ ID NO 39 (VNAR, clone name not tied to this number) VNAR: TRVDQTPRTATKETGESLTINCVLTDTSYPLYSTYWYRKNPGSSNKERISISGRYVESVNKGTKSFSLRIKDLTVADSATYICRAMGTDSWTGDGAGTVLTVN	binds
SEQ ID NO 44 (VNAR, clone name not tied to this number) VNAR: TRVDQTPRTATKETGESLTINCVLTDTSYPLYSTYWYRKNPGSSNKERISISGRYVESVNKGTKSFSLRIKDLTVADSATYICRAMGTNIWTGDGAGTVLTVN	binds
